tested_on: rat brain fatty acid amide hydrolase (FAAH) (Rattus norvegicus)
Sequence (P97612 1-579): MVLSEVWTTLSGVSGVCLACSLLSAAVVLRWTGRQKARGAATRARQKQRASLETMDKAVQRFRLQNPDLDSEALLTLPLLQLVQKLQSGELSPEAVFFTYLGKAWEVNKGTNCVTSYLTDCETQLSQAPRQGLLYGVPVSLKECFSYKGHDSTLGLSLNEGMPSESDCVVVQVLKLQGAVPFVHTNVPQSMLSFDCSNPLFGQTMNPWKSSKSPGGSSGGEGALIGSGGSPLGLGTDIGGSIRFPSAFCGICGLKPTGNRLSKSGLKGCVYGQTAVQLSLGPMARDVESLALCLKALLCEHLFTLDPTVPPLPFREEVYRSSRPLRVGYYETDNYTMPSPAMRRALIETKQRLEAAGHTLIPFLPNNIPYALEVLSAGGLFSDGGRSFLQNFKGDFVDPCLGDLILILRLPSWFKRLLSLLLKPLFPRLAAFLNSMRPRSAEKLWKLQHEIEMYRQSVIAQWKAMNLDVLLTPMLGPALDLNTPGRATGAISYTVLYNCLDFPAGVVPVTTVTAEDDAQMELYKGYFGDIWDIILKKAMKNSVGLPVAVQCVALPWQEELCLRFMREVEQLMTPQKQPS
Assay type: biochemical
reported_conditions: IC50 [95% CI], pre‐incubation 60 min
property_measured: IC50 (µM)
# unit: µM | format: bare number

Form: molecule = CN(C(=O)n1cnc(-c2ccc[n+]([O-])c2)c1)C1CCCCC1 [BIA 10‐2474] ; IC50 = 0.398

====

tested_on: OCT1 (Homo sapiens, UniProt O15245)
Sequence (O15245 whole entry): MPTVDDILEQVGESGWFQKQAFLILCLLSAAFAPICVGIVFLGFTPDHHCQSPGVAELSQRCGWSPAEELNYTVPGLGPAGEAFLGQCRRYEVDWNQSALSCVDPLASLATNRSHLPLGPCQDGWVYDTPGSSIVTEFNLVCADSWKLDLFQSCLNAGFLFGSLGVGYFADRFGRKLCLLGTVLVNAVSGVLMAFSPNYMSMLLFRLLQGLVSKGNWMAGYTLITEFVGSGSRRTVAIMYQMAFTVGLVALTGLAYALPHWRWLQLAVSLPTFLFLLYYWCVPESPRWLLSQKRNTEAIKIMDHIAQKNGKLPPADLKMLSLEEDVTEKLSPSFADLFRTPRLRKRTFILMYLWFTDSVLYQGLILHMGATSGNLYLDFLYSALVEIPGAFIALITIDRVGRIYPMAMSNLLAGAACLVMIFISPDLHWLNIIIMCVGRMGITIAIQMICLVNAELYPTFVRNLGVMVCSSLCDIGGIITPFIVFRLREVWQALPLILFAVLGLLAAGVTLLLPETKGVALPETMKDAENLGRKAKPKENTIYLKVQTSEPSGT
assay_explanation: Transporter inhibition, probe substrate accumulation
Format: in vitro ADME
reported_conditions: CHO-K1 cells stably transfected with OCT1
property_measured: inhibition at 10 μg·ml^−1 (%)
# unit: % | format: bare number

Form: compound = "CN(C(=O)n1cnc(-c2ccc[n+]([O-])c2)c1)C1CCCCC1" ; inhibition at 10 μg·ml^−1 = 26

====

Recorded measurements of pIC50, one per entry
tested_on: rat brain fatty acid amide hydrolase (FAAH) (Rattus norvegicus)
Type: biochemical
reported_conditions: read-out: IC50 [95% CI]; pre‐incubation 15 min
Note: pIC50 values are expressed as the negative base-10 logarithm of concentration in M.

Form: compound = O=C(Nc1cccnn1)N1CCC(=Cc2cccc(Oc3ccc(C(F)(F)F)cn3)c2)CC1 [PF‐04457845] ; pIC50 = 8.82

Form: compound = O=C(Nc1cnccc1Cl)N1CCN(Cc2ccc3c(c2)OC(F)(F)O3)CC1 [JNJ‐42165279] ; pIC50 = 6.56

====

tested_on: rat brain fatty acid amide hydrolase (FAAH) (Rattus norvegicus, UniProt P97612)
Format: biochemical
reported_conditions: IC50 values over all pre‐incubation times, rat brain membranes
pIC50: −log10 of the molar value.
property_measured: pIC50

Result for CN(C(=O)n1cnc(-c2ccc[n+]([O-])c2)c1)C1CCCCC1 [BIA 10‐2474] , tested on rat brain fatty acid amide hydrolase (FAAH) (Rattus norvegicus, UniProt P97612), pIC50: 5.95 to 6.44

====

assay_explanation: Plasma and brain levels of BIA 10‐2474 and PF‐04457845 in mice
Format: in vivo
reported_conditions: mouse, brain (without cerebellum), po, 0.1 mg/kg
property_measured: Tmax (h)
# unit: h | format: bare number

Form: molecule = "CN(C(=O)n1cnc(-c2ccc[n+]([O-])c2)c1)C1CCCCC1" ; Tmax = 1

====

assay_explanation: Plasma and brain levels of BIA 10‐2474 and PF‐04457845 in mice
Type: in vivo
reported_conditions: mouse, plasma, po, 0.3 mg/kg
property_measured: AUC(0-t) (ng·h/mL)
# unit: ng·h/mL | format: bare number

Form: compound = CN(C(=O)n1cnc(-c2ccc[n+]([O-])c2)c1)C1CCCCC1 [BIA 10‐2474] ; AUC(0-t) = 338

====

tested_on: BCRP (Homo sapiens, UniProt Q9UNQ0)
Sequence (Q9UNQ0 whole entry): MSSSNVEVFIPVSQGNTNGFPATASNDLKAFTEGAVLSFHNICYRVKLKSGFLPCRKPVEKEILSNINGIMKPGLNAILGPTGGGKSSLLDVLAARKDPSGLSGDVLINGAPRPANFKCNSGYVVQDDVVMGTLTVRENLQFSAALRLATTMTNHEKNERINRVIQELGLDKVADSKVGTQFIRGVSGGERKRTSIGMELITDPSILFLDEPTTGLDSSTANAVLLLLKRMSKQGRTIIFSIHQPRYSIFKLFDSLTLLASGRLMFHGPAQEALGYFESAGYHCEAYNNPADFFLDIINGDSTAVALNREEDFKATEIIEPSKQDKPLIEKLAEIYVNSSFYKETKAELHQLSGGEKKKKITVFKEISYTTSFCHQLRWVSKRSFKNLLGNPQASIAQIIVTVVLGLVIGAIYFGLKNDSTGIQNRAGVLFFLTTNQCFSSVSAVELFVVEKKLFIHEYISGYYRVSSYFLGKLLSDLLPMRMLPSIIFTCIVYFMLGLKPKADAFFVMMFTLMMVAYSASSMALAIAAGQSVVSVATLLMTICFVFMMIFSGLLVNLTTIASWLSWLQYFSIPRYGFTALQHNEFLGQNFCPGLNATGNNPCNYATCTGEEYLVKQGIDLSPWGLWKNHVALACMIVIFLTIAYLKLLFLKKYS
assay_explanation: Bidirectional permeability in MDCKII‐BCRP monolayers
Assay type: in vitro ADME
reported_conditions: highest observed net efflux ratio (ERBCRP‐ERMDCKII), 10 and 1 μM
property_measured: efflux ratio

Result for "CN(C(=O)n1cnc(-c2ccc[n+]([O-])c2)c1)C1CCCCC1" , tested on BCRP (Homo sapiens, UniProt Q9UNQ0), efflux ratio: 5.7

====

tested_on: rat brain fatty acid amide hydrolase (FAAH) (Rattus norvegicus)
Assay type: biochemical
reported_conditions: IC50 [95% CI], pre‐incubation 5 min
property_measured: pIC50
Note: pIC50 values are expressed as the negative base-10 logarithm of concentration in M.

Form: compound = "CN(C(=O)n1cnc(-c2ccc[n+]([O-])c2)c1)C1CCCCC1" ; pIC50 = 5.93

====

assay_explanation: Plasma and brain levels of BIA 10‐2474 and PF‐04457845 in mice
Assay type: in vivo
reported_conditions: mouse, plasma, po, 0.3 mg/kg
property_measured: Tmax

Form: compound = "CN(C(=O)n1cnc(-c2ccc[n+]([O-])c2)c1)C1CCCCC1" ; Tmax = 1 h

====

assay_explanation: Plasma and brain levels of BIA 10‐2474 and PF‐04457845 in mice
Format: in vivo
reported_conditions: mouse, plasma, po, 0.1 mg/kg
property_measured: Cmax (ng/mL)
# unit: ng/mL | format: bare number

Form: compound = "CN(C(=O)n1cnc(-c2ccc[n+]([O-])c2)c1)C1CCCCC1" ; Cmax = 33
